details: buffer; pH 7.4; 200.0 µM
Outcome label depends on solubility kinetic relative to 5 µg/mL: at/above gives 1, below gives -1.

INSERT INTO measurements (molecule, group_label) VALUES
  ('c1ccc(-c2cnc(CN3CCN(c4ccccc4)CC3)o2)cc1', 1),
  ('NC(=O)c1ccc(=O)n(Cc2ccc(F)c(F)c2)c1', 1),
  ('COc1cccc(C2NC(=O)CCC2[N+](=O)[O-])c1OC (configuration not stated)', 1),
  ('CN1CCC(N(C)C(=O)CNC(=O)c2ccc(C(C)(C)C)cc2)CC1', 1),
  ('Nc1nccc(/C=C/c2c(Cl)cccc2Cl)n1', -1),
  ('COc1ccc(C/C(N)=N/OC(=O)c2ccco2)cc1OC', 1),
  ('S=C(NCc1ccccc1)N1CCn2cccc2C1c1ccncc1 (configuration not stated)', 1),
  ('CCOC(=O)NC(=S)Nc1c(C)n(C)n(-c2ccccc2)c1=O', 1),
  ('CC1=CC(C)(C)NC(=S)N1NC(=O)c1ccccc1Cl', 1),
  ('O=C(Cc1c(F)cccc1Cl)NCc1cccnc1', 1),
  ('CC(=O)Nc1ccc(NC(=O)COc2ccc(Cl)cc2Cl)cc1', -1),
  ('O=C(Nc1ccc(N2CCOCC2)cc1N1CCOCC1)c1ccc(F)cc1', 1),
  ('Cc1ccc(S(=O)(=O)N2CCOCC2)cc1NC(=O)c1ccc(F)cc1F', 1),
  ('O=C(Nc1cccc(-c2nc3ccccc3[nH]2)c1)c1ccccn1', 1),
  ('O=C(CC(Cc1ccccc1)C(=O)O)Nc1ccc(F)cc1 (configuration not stated)', 1),
  ('COc1ccccc1-n1cnc2sc(C)c(C)c2c1=O', 1),
  ('CCOC(=O)c1c(O)cc(C)[nH]c1=O', 1),
  ('CCCCCOc1ccc(C(=O)OC(C)C(=O)NCc2ccco2)cc1 (configuration not stated)', -1),
  ('Nc1c(C(=O)OCC(=O)Nc2cccc([N+](=O)[O-])c2)[nH]c(=O)[nH]c1=O', 1),
  ('CCOc1ccc(-c2c(C)sc3nc[nH]c(=O)c23)cc1', 1),
  ('CC(C)(C)N(Cc1ccccc1)C(=O)CN1C(=O)c2ccccc2C1=O', -1),
  ('Cc1ccc(C)c2c1N(Cc1ccccc1)C(=O)C21OCCO1', -1),
  ('CSc1ncc(Cl)c(C(=O)Nc2ccccc2C)n1', -1),
  ('O=C(CS(=O)(=O)c1ccccc1Cl)N1CCOCC1', 1),
  ('COCCOc1ccc(C(F)(F)F)cc1N', 1),
  ('CCSc1nc(C)nc2sc(C)c(C)c12', -1),
  ('CC(C(=O)NCC1CCCCC1)N(C)Cc1ccc(Cl)cc1 (configuration not stated)', 1),
  ('CC(=NCCc1ccccc1)c1c(O)n(C)c(=O)n(C)c1=O', 1),
  ('Cc1cc(C)c2c(N)c(C(=O)Nc3cccc(C)c3C)sc2n1', -1),
  ('CC(C)(C)c1ccc(S(=O)(=O)N2CCNC(=O)C2)cc1', 1),
  ('CC1CCc2c(sc(NC(=O)C3=COCCO3)c2C(N)=O)C1 (configuration not stated)', 1),
  ('Cc1cc(C)c2nc(NCc3ccccc3O)sc2c1', -1),
  ('Fc1cc2[nH]c(=S)[nH]c2cc1Cl', 1),
  ('CCc1ccc(C(=O)Nc2ccc3nc(C)ccc3c2)cc1', -1),
  ('C=CCN1CN(CCc2ccccc2)CNC1=S', 1),
  ('COc1ccc(NC(=O)c2cc(-c3ccccn3)nc3ccccc23)c(OC)c1', -1),
  ('O=S(=O)(NCCCN1CCOCC1)c1ccc(Cl)cc1', 1),
  ('Cc1ccc(NC(=O)C2C3CCCCC32)cc1[N+](=O)[O-] (configuration not stated)', -1),
  ('Cc1ccc(S(=O)(=O)NC2CC(C)(C)NC(C)(C)C2)cc1', 1),
  ('Cc1ccc(/C=N/NC(=O)c2ccc3nc[nH]c3c2)o1', 1),
  ('O=S(=O)(c1cc(Br)c(Cl)s1)N1CCCC1', -1),
  ('Cc1ccc(-c2cc(C(=O)NCC3CCCO3)c3ccccc3n2)cc1C (configuration not stated)', -1);
